Experiment: H+/Na+ transport assay of purified peptides
Details: read-out: EC50, H+/Na+ transport assay; 3rd experiment
Where a SMILES comes first, the peptide text is derived from it. [ ]: non-standard residue; d: D form. The star is where a group is joined. NHCH2CH2OH = OCCN*; For = O=C*
RECORDED_ENDPOINT: EC50 (nM)

MOLECULE	UNIT_TAG	TEST_VALUE
CC(C)C[C@@H](NC(=O)[C@H](C)NC(=O)CNC(=O)[C@@H](NC=O)C(C)C)C(=O)N[C@@H](C)C(=O)N[C@H](CC(C)C)C(=O)N[C@H](C(=O)N[C@H](CC(C)C)C(=O)N[C@@H](Cc1c[nH]c2ccccc12)C(=O)N[C@H](CC(C)C)C(=O)N[C@@H](Cc1c[nH]c2ccccc12)C(=O)N[C@@H](C(=O)N[C@@H](Cc1c[nH]c2ccccc12)C(=O)N[C@@H](C(=O)N[C@@H](Cc1c[nH]c2ccccc12)C(=O)NCCO)C(C)C)[C@H](C)O)C(C)C [B11] (For-VGA[dL]A[dL]V[dL]W[dL]W[dT]W[dV]W-NHCH2CH2OH)	nM	7.92

###

Test system: Streptococcus pyogenes SSI-9
Assay: Antibacterial activity assay of bead-derived peptides (three concentrations)
Assay type: cell-based
Set-up: key: +++: inhibition by the 640-fold diluted peptide solution; ++: inhibition by the 160-fold diluted solution; +: inhibition by the 40-fold diluted solution; -: no inhibition
Settings: S. pyogenes, bead-derived peptide solution, three concentrations
Where a SMILES comes first, the peptide text is derived from it. [ ]: non-standard residue; d: D form. The star is where a group is joined. NHCH2CH2OH = OCCN*; For = O=C*

COMPOUND	TESTED_ON	antibacterial activity
CNC(=O)C[C@@H](NC(=O)[C@@H](NC(=O)[C@@H](CC(C)C)NC(=O)[C@H](C)NC(=O)[C@H](NC(=O)[C@H](C)NC(=O)CNC(=O)[C@@H](NC=O)C(C)C)C(C)C)C(C)C)C(=O)N[C@@H](Cc1c[nH]c2ccccc12)C(=O)N[C@@H](C(=O)N[C@@H](Cc1c[nH]c2ccccc12)C(=O)N[C@H](CC(C)C)C(=O)N[C@@H](Cc1c[nH]c2ccccc12)C(=O)N[C@H](CC(C)C)C(=O)N[C@@H](Cc1c[nH]c2ccccc12)C(=O)NCCO)C(C)C [compound 603] (For-VGA[dV]A[dL]V[dD](NHMe)W[dV]W[dL]W[dL]W-NHCH2CH2OH)	Streptococcus pyogenes SSI-9	-

###

Test system: P388 mouse leukemia cells
Settings: 92 h
Where a SMILES comes first, the peptide text is derived from it. [ ]: non-standard residue; d: D form. The star is where a group is joined. NHCH2CH2OH = OCCN*; For = O=C*

COMPOUND	UNIT_TAG	cell viability/%
CC(C)C[C@@H](NC(=O)[C@H](C)NC(=O)CNC(=O)[C@@H](NC=O)C(C)C)C(=O)N[C@@H](C)C(=O)N[C@@H](C(=O)N[C@H](C(=O)N[C@@H](C(=O)N[C@@H](Cc1c[nH]c2ccccc12)C(=O)N[C@@H](C(=O)N[C@@H](Cc1c[nH]c2ccccc12)C(=O)N[C@H](CC(C)C)C(=O)N[C@@H](Cc1c[nH]c2ccccc12)C(=O)N[C@H](CC(C)C)C(=O)N[C@@H](Cc1c[nH]c2ccccc12)C(=O)NCCO)C(C)C)[C@H](C)O)C(C)C)C(C)C [compound 5482] (For-VGA[dL]A[dV]V[dT]W[dV]W[dL]W[dL]W-NHCH2CH2OH)	%	100.0

###

Test system: Streptococcus pyogenes SSI-9
Assay: Antibacterial activity assay of bead-derived peptides (three concentrations)
Format: cell-based
Set-up: key: +++: inhibition by the 640-fold diluted peptide solution; ++: inhibition by the 160-fold diluted solution; +: inhibition by the 40-fold diluted solution; -: no inhibition
Settings: S. pyogenes, bead-derived peptide solution, three concentrations
Where a SMILES comes first, the peptide text is derived from it. [ ]: non-standard residue; d: D form. The star is where a group is joined. NHCH2CH2OH = OCCN*; For = O=C*

MOLECULE	antibacterial activity
CC(C)C[C@@H](NC(=O)[C@H](C)NC(=O)CNC(=O)[C@@H](NC=O)C(C)C)C(=O)N[C@@H](C)C(=O)N[C@H](CC(C)C)C(=O)N[C@H](C(=O)N[C@@H](C(=O)N[C@@H](Cc1c[nH]c2ccccc12)C(=O)N[C@@H](C(=O)N[C@@H](Cc1c[nH]c2ccccc12)C(=O)N[C@@H](C(=O)N[C@@H](Cc1c[nH]c2ccccc12)C(=O)N[C@H](CC(C)C)C(=O)N[C@@H](Cc1c[nH]c2ccccc12)C(=O)NCCO)C(C)C)[C@H](C)O)C(C)C)C(C)C [compound 12081] (For-VGA[dL]A[dL]V[dV]W[dT]W[dV]W[dL]W-NHCH2CH2OH)	-
CC(C)C[C@@H](NC(=O)[C@H](Cc1c[nH]c2ccccc12)NC(=O)[C@@H](CC(C)C)NC(=O)[C@@H](NC(=O)[C@H](NC(=O)[C@H](C)NC(=O)[C@H](NC(=O)[C@H](C)NC(=O)CNC(=O)[C@@H](NC=O)C(C)C)[C@H](C)O)C(C)C)C(C)C)C(=O)N[C@@H](Cc1c[nH]c2ccccc12)C(=O)N[C@@H](C(=O)N[C@@H](Cc1c[nH]c2ccccc12)C(=O)N[C@@H](C(=O)N[C@@H](Cc1c[nH]c2ccccc12)C(=O)NCCO)C(C)C)C(C)C [compound 11772] (For-VGA[dT]A[dV]V[dL]W[dL]W[dV]W[dV]W-NHCH2CH2OH)	-
CC(C)C[C@@H](NC(=O)[C@H](C)NC(=O)CNC(=O)[C@@H](NC=O)C(C)C)C(=O)N[C@@H](C)C(=O)N[C@@H](C(=O)N[C@H](C(=O)N[C@H](CC(C)C)C(=O)N[C@@H](Cc1c[nH]c2ccccc12)C(=O)N[C@@H](C(=O)N[C@@H](Cc1c[nH]c2ccccc12)C(=O)N[C@@H](C(=O)N[C@@H](Cc1c[nH]c2ccccc12)C(=O)N[C@@H](C(=O)N[C@@H](Cc1c[nH]c2ccccc12)C(=O)NCCO)C(C)C)C(C)C)C(C)C)C(C)C)C(C)C [compound 7938] (For-VGA[dL]A[dV]V[dL]W[dV]W[dV]W[dV]W-NHCH2CH2OH)	+
CNC(=O)C[C@@H](NC(=O)[C@@H](NC(=O)[C@H](NC(=O)[C@H](C)NC(=O)[C@H](NC(=O)[C@H](C)NC(=O)CNC(=O)[C@@H](NC=O)C(C)C)C(C)C)C(C)C)C(C)C)C(=O)N[C@@H](Cc1c[nH]c2ccccc12)C(=O)N[C@H](CC(C)C)C(=O)N[C@@H](Cc1c[nH]c2ccccc12)C(=O)N[C@@H](C(=O)N[C@@H](Cc1c[nH]c2ccccc12)C(=O)N[C@@H](C(=O)N[C@@H](Cc1c[nH]c2ccccc12)C(=O)NCCO)C(C)C)C(C)C [compound 8057] (For-VGA[dV]A[dV]V[dD](NHMe)W[dL]W[dV]W[dV]W-NHCH2CH2OH)	-
CC(C)C[C@@H](NC(=O)[C@H](Cc1c[nH]c2ccccc12)NC(=O)[C@H](NC(=O)[C@H](Cc1c[nH]c2ccccc12)NC(=O)[C@H](NC(=O)[C@@H](NC(=O)[C@H](NC(=O)[C@H](C)NC(=O)[C@H](NC(=O)[C@H](C)NC(=O)CNC(=O)[C@@H](NC=O)C(C)C)C(C)C)[C@H](C)O)C(C)C)C(C)C)C(C)C)C(=O)N[C@@H](Cc1c[nH]c2ccccc12)C(=O)N[C@@H](C(=O)N[C@@H](Cc1c[nH]c2ccccc12)C(=O)NCCO)C(C)C [compound 7061] (For-VGA[dV]A[dT]V[dV]W[dV]W[dL]W[dV]W-NHCH2CH2OH)	-
CNC(=O)C[C@@H](NC(=O)[C@H](Cc1c[nH]c2ccccc12)NC(=O)[C@H](NC(=O)[C@H](Cc1c[nH]c2ccccc12)NC(=O)[C@@H](CC(C)C)NC(=O)[C@H](Cc1c[nH]c2ccccc12)NC(=O)[C@H](NC(=O)[C@@H](NC(=O)[C@H](NC(=O)[C@H](C)NC(=O)[C@@H](CC(C)C)NC(=O)[C@H](C)NC(=O)CNC(=O)[C@@H](NC=O)C(C)C)C(C)C)C(C)C)C(C)C)C(C)C)C(=O)N[C@@H](Cc1c[nH]c2ccccc12)C(=O)NCCO [compound 3499] (For-VGA[dL]A[dV]V[dV]W[dL]W[dV]W[dD](NHMe)W-NHCH2CH2OH)	+
CC(C)C[C@@H](NC(=O)[C@H](C)NC(=O)CNC(=O)[C@@H](NC=O)C(C)C)C(=O)N[C@@H](C)C(=O)N[C@@H](C(=O)N[C@H](C(=O)N[C@@H](C(=O)N[C@@H](Cc1c[nH]c2ccccc12)C(=O)N[C@H](CC(C)C)C(=O)N[C@@H](Cc1c[nH]c2ccccc12)C(=O)N[C@H](CC(C)C)C(=O)N[C@@H](Cc1c[nH]c2ccccc12)C(=O)N[C@@H](C(=O)N[C@@H](Cc1c[nH]c2ccccc12)C(=O)NCCO)C(C)C)C(C)C)C(C)C)[C@H](C)O [compound 13002] (For-VGA[dL]A[dT]V[dV]W[dL]W[dL]W[dV]W-NHCH2CH2OH)	-
CC(C)C[C@@H](NC(=O)[C@H](Cc1c[nH]c2ccccc12)NC(=O)[C@H](NC(=O)[C@H](Cc1c[nH]c2ccccc12)NC(=O)[C@@H](CC(C)C)NC(=O)[C@@H](NC(=O)[C@H](NC(=O)[C@H](C)NC(=O)[C@H](NC(=O)[C@H](C)NC(=O)CNC(=O)[C@@H](NC=O)C(C)C)C(C)C)C(C)C)C(C)C)C(C)C)C(=O)N[C@@H](Cc1c[nH]c2ccccc12)C(=O)N[C@@H](C(=O)N[C@@H](Cc1c[nH]c2ccccc12)C(=O)NCCO)C(C)C [compound 12947] (For-VGA[dV]A[dV]V[dL]W[dV]W[dL]W[dV]W-NHCH2CH2OH)	+
